% Rmax hCD16B-NA2 reference
biological target: CD16B-NA2 (FcgRIIIb-NA2) (Homo sapiens, UniProt O75015); assay: SPR, antibody binding to anti-his Fab captured FcgR-his (% Rmax); conditions: 1 μM antibody
Sequence (O75015 17-200 limits assumed): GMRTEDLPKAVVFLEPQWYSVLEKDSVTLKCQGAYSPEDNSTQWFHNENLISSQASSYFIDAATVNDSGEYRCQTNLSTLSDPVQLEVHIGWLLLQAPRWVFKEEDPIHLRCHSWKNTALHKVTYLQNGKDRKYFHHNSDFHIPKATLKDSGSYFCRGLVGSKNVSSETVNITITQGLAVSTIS
Give just the number in %; leave the unit off.

mAb7-IgG2.3G1-AY-V27 (protein, left off: another chain or arm of the molecule) constant: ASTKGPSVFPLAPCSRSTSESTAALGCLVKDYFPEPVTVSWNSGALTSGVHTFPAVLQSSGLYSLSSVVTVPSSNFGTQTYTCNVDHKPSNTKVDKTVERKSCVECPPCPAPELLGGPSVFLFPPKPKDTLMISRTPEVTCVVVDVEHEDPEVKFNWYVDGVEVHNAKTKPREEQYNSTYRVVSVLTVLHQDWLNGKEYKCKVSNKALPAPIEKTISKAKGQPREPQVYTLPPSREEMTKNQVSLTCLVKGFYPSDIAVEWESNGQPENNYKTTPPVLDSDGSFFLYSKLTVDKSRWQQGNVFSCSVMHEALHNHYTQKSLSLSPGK : 7
mAb4-IgG2.5 (protein, left off: another chain or arm of the molecule) constant: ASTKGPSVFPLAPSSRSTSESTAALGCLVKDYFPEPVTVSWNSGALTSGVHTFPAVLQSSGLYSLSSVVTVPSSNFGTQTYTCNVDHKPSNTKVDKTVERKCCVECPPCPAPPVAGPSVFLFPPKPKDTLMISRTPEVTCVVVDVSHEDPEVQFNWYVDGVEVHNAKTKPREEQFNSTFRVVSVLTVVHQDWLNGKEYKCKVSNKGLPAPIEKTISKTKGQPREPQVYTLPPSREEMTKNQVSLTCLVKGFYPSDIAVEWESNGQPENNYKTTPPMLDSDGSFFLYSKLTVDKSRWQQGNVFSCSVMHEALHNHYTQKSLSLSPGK : 0
mAb13-IgG2.5 (protein, left off: another chain or arm of the molecule) constant: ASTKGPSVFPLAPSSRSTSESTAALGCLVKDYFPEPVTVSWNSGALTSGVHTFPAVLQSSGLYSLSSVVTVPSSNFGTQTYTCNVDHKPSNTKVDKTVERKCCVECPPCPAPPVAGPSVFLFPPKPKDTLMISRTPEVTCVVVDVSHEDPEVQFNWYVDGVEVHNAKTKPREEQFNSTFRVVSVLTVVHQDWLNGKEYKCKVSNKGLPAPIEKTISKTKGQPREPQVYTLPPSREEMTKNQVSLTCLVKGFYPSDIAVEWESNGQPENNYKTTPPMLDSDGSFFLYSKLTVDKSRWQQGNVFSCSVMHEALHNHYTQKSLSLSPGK : −2
mAb8-IgG2.3G1-AY-V27 (protein, left off: another chain or arm of the molecule) constant: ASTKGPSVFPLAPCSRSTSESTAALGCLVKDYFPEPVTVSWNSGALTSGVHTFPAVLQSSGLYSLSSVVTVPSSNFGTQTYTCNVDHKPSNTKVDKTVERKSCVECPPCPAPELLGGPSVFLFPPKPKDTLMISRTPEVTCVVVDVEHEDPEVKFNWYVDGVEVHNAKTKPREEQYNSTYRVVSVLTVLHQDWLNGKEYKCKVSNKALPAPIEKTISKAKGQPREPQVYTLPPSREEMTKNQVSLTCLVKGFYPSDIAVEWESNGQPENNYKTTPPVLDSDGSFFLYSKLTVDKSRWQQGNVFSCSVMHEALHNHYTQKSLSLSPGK : 7

Here is another molecule to look at.
input: Give the value of % Rmax hCD16B-NA2 reported for the following: mAb6-IgG2.3 (protein, left off: another chain or arm of the molecule) constant: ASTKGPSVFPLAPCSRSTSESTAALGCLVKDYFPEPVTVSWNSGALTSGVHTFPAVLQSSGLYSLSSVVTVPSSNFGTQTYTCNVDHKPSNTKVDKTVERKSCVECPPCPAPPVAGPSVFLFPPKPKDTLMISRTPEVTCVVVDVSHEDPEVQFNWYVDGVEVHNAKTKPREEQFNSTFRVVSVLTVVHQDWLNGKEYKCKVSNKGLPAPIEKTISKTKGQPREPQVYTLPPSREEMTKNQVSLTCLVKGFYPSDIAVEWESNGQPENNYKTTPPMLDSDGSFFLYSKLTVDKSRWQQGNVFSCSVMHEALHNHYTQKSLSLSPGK
output: 0
